Data origin, for the record: patent US20210246166A1

testedSystem: T1, Recombinant human MASP1 enzyme (fragment corresponding to amino acids 297-699, C-terminal His Tag) (human, UniProt P48740 297-699)
T1 sequence: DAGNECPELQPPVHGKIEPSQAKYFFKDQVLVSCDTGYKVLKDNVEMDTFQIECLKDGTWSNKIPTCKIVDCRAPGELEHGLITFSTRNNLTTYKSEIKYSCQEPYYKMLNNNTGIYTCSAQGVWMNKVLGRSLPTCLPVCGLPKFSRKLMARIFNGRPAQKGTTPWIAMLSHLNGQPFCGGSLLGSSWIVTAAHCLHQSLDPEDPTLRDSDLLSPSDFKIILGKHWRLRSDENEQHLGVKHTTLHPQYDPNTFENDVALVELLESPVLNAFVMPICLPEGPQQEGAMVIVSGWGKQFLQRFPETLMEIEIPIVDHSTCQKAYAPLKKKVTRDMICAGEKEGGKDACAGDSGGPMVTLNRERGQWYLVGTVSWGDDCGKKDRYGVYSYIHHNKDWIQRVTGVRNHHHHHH
assayExplanation: cell-based or functional assay
Bridge positions count the residues as written; N and C are the ends. Square brackets hold non-standard residues; d marks the D form. Ends that are not written are not given here. tBuAla = CC(C)(C)C[C@H](N)C(=O)O; Pen = CC(C)(S)[C@H](N)C(=O)O
assayEndpoint: human MASP1 IC50

Query block: Form field: reported human MASP1 IC50 of [dK]ICSRS[tBuAla]PPI[Pen]I-NH2 (disulfide 3-11; N-terminus assumed; SMILES CC[C@H](C)[C@H](NC(=O)[C@H]1NC(=O)[C@H]([C@@H](C)CC)NC(=O)[C@@H]2CCCN2C(=O)[C@@H]2CCCN2C(=O)[C@H](CC(C)(C)C)NC(=O)[C@H](CO)NC(=O)[C@H](CCCNC(=N)N)NC(=O)[C@H](CO)NC(=O)[C@@H](NC(=O)[C@@H](NC(=O)[C@H](N)CCCCN)[C@@H](C)CC)CSSC1(C)C)C(N)=O) [kIC+SRS-((tBu)A)-PPI-(Pen)+I-NH2]
Result block: 10 nM
